System: Mast cell
test-protocol: Inhibition of compound 48/80-induced histamine release in rat peritoneal mast cells
Assay type: functional, cell-based
pIC50: −log10 of the molar value.
observation-type: pIC50

compound-string: CN([C@@H]1CCc2ccccc2C1)[C@@H]1CC(=O)c2ccccc21
observation-type: pIC50
value: 5.52
//
compound-string: CN([C@H]1CCc2ccccc2C1)[C@H]1CC(=O)c2ccccc21
observation-type: pIC50
value: 5.83
//
compound-string: CN([C@@H]1CCc2ccccc2C1)[C@H]1CC(=O)c2ccccc21
observation-type: pIC50
value: 5.82
//
compound-string: CN([C@H]1CCc2ccccc2C1)[C@@H]1CC(=O)c2ccccc21
observation-type: pIC50
value: 5.66

* * *

System: Mast cell
test-protocol: Inhibition of A23187-induced histamine release in rat peritoneal mast cells
Assay type: functional, cell-based
pIC50: −log10 of the molar value.
observation-type: pIC50

Example molecules with recorded pIC50:
compound-string: CN([C@H]1CCc2ccccc2C1)[C@@H]1CC(=O)c2ccccc21
test-system: Mast cell
value: 5.16

compound-string: CN([C@H]1CCc2ccccc2C1)[C@H]1CC(=O)c2ccccc21
test-system: Mast cell
value: 5.09

I. CN([C@@H]1CCc2ccccc2C1)[C@@H]1CC(=O)c2ccccc21
II. CN([C@@H]1CCc2ccccc2C1)[C@H]1CC(=O)c2ccccc21
Request: // pick larger pIC50 from pair: I vs II Pick one; state its label.
Response: II
(II: 5.39, I: 5.02)
